Hey, just so you know, these numbers are from the supplement of paper PMC10266784.

B1: library; numbered along this chain (parent)
chain: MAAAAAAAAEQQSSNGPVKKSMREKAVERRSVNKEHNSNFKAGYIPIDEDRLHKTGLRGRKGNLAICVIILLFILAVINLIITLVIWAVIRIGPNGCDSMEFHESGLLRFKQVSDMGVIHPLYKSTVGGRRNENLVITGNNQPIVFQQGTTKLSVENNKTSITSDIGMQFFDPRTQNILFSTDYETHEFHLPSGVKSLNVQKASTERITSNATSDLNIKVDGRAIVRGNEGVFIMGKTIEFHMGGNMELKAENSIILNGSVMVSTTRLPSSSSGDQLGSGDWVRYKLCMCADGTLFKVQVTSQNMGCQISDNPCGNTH

- Variants of: B1
- Protocol description: SGCB cell-surface expression functional score (HA stain, bin4 vs bin1, normalised to synonymous) (log10 ratio); higher = more cell-surface SGCB (functional)
Readout kind: SGCB cell-surface expression functional score (log10)

Residue change: M289R
Result: -0.22

Residue change: L75V
Result: -0.01

Residue change: C307Q
Result: 0.09

Residue change: M116Y
Result: -1.63

Residue change: S13L
Result: 0.02

Residue change: T186G
Result: -0.44

Residue change: F233M
Result: 1.15

Residue change: T186I
Result: 0.3

Residue change: T150D
Result: 0.59

Residue change: P173R
Result: -0.47

Residue change: I178L
Result: 0.3

Residue change: G128R
Result: -0.6

Residue change: D183M
Result: -0.83

Residue change: T83E
Result: -0.18

Residue change: V32N
Result: 0.67

Residue change: H242W
Result: 0.6

Residue change: T163D
Result: -1.08

Residue change: M116F
Result: 0.29

Residue change: K219P
Result: -0.21

Residue change: T238R
Result: 0.94

Residue change: F110N
Result: -0.99

Residue change: S260N
Result: 0.25
